Hello, the source for this data is patent US10730849B2, in case you need it.

system.under.test: full-length WT STING (Homo sapiens (Human), UniProt Q86WV6, H232R)
Sequence (Q86WV6 other isoform, or with tags, fused parts or gaps H232R (already in the parent)): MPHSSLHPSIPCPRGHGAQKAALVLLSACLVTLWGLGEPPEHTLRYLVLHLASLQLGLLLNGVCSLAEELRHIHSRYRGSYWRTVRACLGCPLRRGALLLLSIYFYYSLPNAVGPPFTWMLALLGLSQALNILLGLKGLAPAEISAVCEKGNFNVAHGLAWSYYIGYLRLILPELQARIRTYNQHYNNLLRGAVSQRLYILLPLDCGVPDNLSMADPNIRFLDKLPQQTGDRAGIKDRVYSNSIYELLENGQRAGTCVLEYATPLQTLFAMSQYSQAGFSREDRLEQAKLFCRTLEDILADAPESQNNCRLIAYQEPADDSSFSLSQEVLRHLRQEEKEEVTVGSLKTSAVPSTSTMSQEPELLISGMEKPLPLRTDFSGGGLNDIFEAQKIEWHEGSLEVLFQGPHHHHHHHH
experiment.notes: 3H-cGAMP filtration binding assay (WT STING)
run.parameters: competition with tritiated cGAMP, WT STING membrane
readout.label: pEC50
Lab note: report pEC50 as minus log10 of the concentration in molar units, number only.

input: What value of pEC50 has been reported for the following molecule? COc1cc2sc(C(=O)C[C@H](C)C(=O)O)cc2c(F)c1OC [Example 13]
output: 5.68

input: Repeat with C=Cc1cc2sc(C(=O)CCC(=O)O)cc2cc1OC [Example 8]
output: 4.81

Consider now this further molecule.
input: What value of pEC50 has been reported for the following molecule? COc1cc2cc(C(=O)C[C@H](C)C(=O)O)sc2cc1C [Example 22]
output: 4.77

* * *

system.under.test: full-length WT STING (Homo sapiens (Human), UniProt Q86WV6, H232R)
experiment.notes: 3H-cGAMP filtration binding assay (WT STING)
run.parameters: competition with tritiated cGAMP, WT STING membrane
readout.label: EC50 (µM)
Number in µM, nothing else.

input: What value of EC50 has been reported for the following compound? CCc1cc2sc(C(=O)C[C@H](C)C(=O)O)cc2cc1OC
output: 14.3

input: Repeat with COc1cc2cc(C(=O)C3CC3C(=O)O)sc2cc1OC (stereo not drawn)
output: 1.14

input: Repeat with CCC(CC(=O)c1cc2cc(OC)c(OC)cc2s1)C(=O)O (stereo not drawn)
output: 5.17

input: Repeat with COc1cc2cc(C(=O)C[C@H](C)C(=O)O)sc2cc1O
output: 4.11

input: Repeat with COc1cc2sc(C(=O)C[C@H](C)C(=O)O)cc2cc1Br
output: 8.54

More entries:
input: What value of EC50 has been reported for the following compound? COc1cc2sc(C(=O)C[C@H](C)C(=O)O)cc2cc1F
output: 18.7

* * *

system.under.test: full-length HAQ STING (Homo sapiens (Human), UniProt Q86WV6, G230A/H232R/R293Q/R71H)
Sequence (Q86WV6 other isoform, or with tags, fused parts or gaps, stated change not applied): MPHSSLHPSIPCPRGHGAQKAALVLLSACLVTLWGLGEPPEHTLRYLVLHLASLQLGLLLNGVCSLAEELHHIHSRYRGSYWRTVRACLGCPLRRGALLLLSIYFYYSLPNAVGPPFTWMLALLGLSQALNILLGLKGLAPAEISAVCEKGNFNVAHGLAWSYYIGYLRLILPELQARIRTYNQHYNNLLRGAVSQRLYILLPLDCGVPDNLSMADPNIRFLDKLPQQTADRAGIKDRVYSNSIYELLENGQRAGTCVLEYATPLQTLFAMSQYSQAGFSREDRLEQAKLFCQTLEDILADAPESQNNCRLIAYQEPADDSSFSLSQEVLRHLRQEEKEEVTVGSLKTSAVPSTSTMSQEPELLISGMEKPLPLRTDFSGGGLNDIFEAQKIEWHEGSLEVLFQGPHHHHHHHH
experiment.notes: 3H-cGAMP filtration binding assay (HAQ STING)
run.parameters: competition with tritiated cGAMP, HAQ STING membrane
Sorting guide: entries reporting EC50 beneath 4 µM go in the class 1 pile, the rest go in the class 0 pile.

Example entries and their recorded answers appear below.
input: is_below(EC50, 4 µM) for CCOc1cc2sc(C(=O)C[C@H](C)C(=O)O)cc2cc1Cl ?
output: class 0

input: Repeat with COc1cc2sc(C(=O)C[C@H](C)C(=O)O)cc2c2nc(C)oc12
output: class 1

input: Repeat with COc1cc2cc(C(=O)CCC(=O)O)sc2cc1Cl
output: class 0

input: Repeat with COc1cc2cc(C(=O)CCC(=O)O)sc2cc1OC
output: class 1

input: Repeat with COc1cc2cc(C(=O)C[C@H](C)C(=O)O)sc2cc1SC
output: class 1

input: Repeat with COc1cc2cc(C(=O)C[C@H](C)C(=O)O[C@H]3CSSC[C@@H]3O)sc2cc1OC
output: class 1

More entries:
input: is_below(EC50, 4 µM) for COc1cc2sc(C(=O)[C@H]3C[C@H]3C(=O)O)cc2c(F)c1OC ?
output: class 0

input: Repeat with COc1cc2sc(C(=O)CCC(=O)O)c(Cl)c2cc1OC
output: class 0

input: Repeat with Cc1cc2cc(C(=O)C[C@H](C)C(=O)O)sc2cc1Br
output: class 0

input: Repeat with C[C@@H](CC(=O)c1cc2cc(Cl)c(Cl)cc2s1)C(=O)O
output: class 0

input: Repeat with C=Cc1cc2cc(C(=O)CCC(=O)O)sc2cc1OC
output: class 0

input: Repeat with CCC(CC(=O)c1cc2cc(OC)c(OC)cc2s1)C(=O)O (stereo not drawn)
output: class 1

* * *

system.under.test: full-length WT STING (Homo sapiens (Human), UniProt Q86WV6, H232R)
experiment.notes: 3H-cGAMP filtration binding assay (WT STING)
run.parameters: WT STING, compound at 20 uM
readout.label: inhibition at 20 µM (%)
Number in %, nothing else.

input: What value of inhibition at 20 µM on full-length WT STING (Homo sapiens (Human), UniProt Q86WV6, H232R) does COc1cc2sc(C(=O)CCC(=O)O)cc2cc1Cl have?
output: 20

input: Repeat with C[C@@H](CC(=O)c1cc2cc(Cl)c(Cl)cc2s1)C(=O)O
output: 33

input: Repeat with C#Cc1cc2cc(C(=O)CCC(=O)O)sc2cc1OC
output: 9

input: Repeat with COc1cc2sc(C(=O)[C@@H]3C[C@@H]3C(=O)O)cc2c(F)c1OC
output: 101

input: Repeat with COc1cc2cc(C(=O)CCC(=O)O)sc2cc1Cl
output: 37

Consider now this further molecule.
input: What value of inhibition at 20 µM on full-length WT STING (Homo sapiens (Human), UniProt Q86WV6, H232R) does COc1cc2cc(C(=O)C[C@H](C)C(=O)O)sc2cc1CCF have?
output: 24

* * *

system.under.test: full-length HAQ STING (Homo sapiens (Human), UniProt Q86WV6, G230A/H232R/R293Q/R71H)
experiment.notes: 3H-cGAMP filtration binding assay (HAQ STING)
run.parameters: competition with tritiated cGAMP, HAQ STING membrane
readout.label: pEC50
Lab note: report pEC50 as minus log10 of the concentration in molar units, number only.

input: What value of pEC50 on full-length HAQ STING (Homo sapiens (Human), UniProt Q86WV6, G230A/H232R/R293Q/R71H) does C=Cc1cc2sc(C(=O)CCC(=O)O)cc2cc1OC [Example 8] have?
output: 5.17

More entries:
input: What value of pEC50 on full-length HAQ STING (Homo sapiens (Human), UniProt Q86WV6, G230A/H232R/R293Q/R71H) does COc1cc2cc(C(=O)C[C@H](C)C(=O)O)sc2cc1OC [Example 11] have?
output: 5.56

* * *

# Lookup of reported pEC50 keyed by entry
system.under.test: full-length HAQ STING (Homo sapiens (Human), UniProt Q86WV6, G230A/H232R/R293Q/R71H)
experiment.notes: 3H-cGAMP filtration binding assay (HAQ STING)
run.parameters: competition with tritiated cGAMP, HAQ STING membrane
Lab note: report pEC50 as minus log10 of the concentration in molar units, number only.

input: What value of pEC50 on full-length HAQ STING (Homo sapiens (Human), UniProt Q86WV6, G230A/H232R/R293Q/R71H) does COc1cc2cc(C(=O)CCC(=O)O)sc2cc1Br have?
output: 5.59

input: Repeat with COc1cc2cc(C(=O)C3CC3C(=O)O)sc2cc1OC (stereo not drawn)
output: 5.72

Consider now this further compound.
input: What value of pEC50 on full-length HAQ STING (Homo sapiens (Human), UniProt Q86WV6, G230A/H232R/R293Q/R71H) does C[C@@H](CC(=O)c1cc2cc(Cl)c(Br)cc2s1)C(=O)O have?
output: 5.44

* * *

system.under.test: full-length HAQ STING (Homo sapiens (Human), UniProt Q86WV6, G230A/H232R/R293Q/R71H)
experiment.notes: 3H-cGAMP filtration binding assay (HAQ STING)
run.parameters: competition with tritiated cGAMP, HAQ STING membrane
Excerpt: The ability of compounds to bind STING is quantified by the ability to compete with tritiated cGAMP ligand for human STING receptor membrane using a radioactive filter-binding assay. […] The ability of compounds to bind STING is quantified by their ability to compete with tritiated cGAMP ligand for human STING receptor membrane using a radioactive filter-binding assay. […]
readout.label: pEC50
Lab note: report pEC50 as minus log10 of the concentration in molar units, number only.

Use these answered entries as a reference point.
input: What value of pEC50 has been reported for the following compound? COc1cc2cc(C(=O)CC(C(=O)O)C3CC3)sc2cc1OC (centres unmarked) [Example 3]
output: 4.97

input: Repeat with COc1cc2cc(C(=O)CC(C)C(=O)O)sc2cc1OC (centres unmarked) [Example 35]
output: 5.26

input: Repeat with CCCC(CC(=O)c1cc2cc(OC)c(OC)cc2s1)C(=O)O (centres unmarked) [Example 49]
output: 5.57

More entries:
input: What value of pEC50 has been reported for the following compound? Cc1cc2sc(C(=O)C[C@H](C)C(=O)O)cc2cc1Br [Example 34]
output: 4.98

input: Repeat with COc1cc2sc(C(=O)C[C@H](C)C(=O)O)cc2cc1Cl [Example 28]
output: 5.71
